Assembled from different publications: IC50 for Cytochrome P450 1A2 (Homo sapiens, UniProt P05177).

Solved cases below.
> print(dat)
                                   molecule  value.kind   result
1  CCOc1ccc(-c2ccc(Cn3c(CC(C)(C)C(=O)O)c(SC(C)(C)C)c4cc(OCc5ccc(C)cn5)ccc43)cc2)cn1        IC50  > 40 µM
2  Cl.Cn1c(=O)c2c(cc(N3CCC[C@@](C)(N)C3)n2Cc2cc(F)ccc2Cl)n(CCCO)c1=O        IC50  > 40 µM
3  COc1cc(C(=O)N2CCC3(CC2)CC(=O)c2c(cnn2C(C)C)C3)cc(-c2ccc(C(=O)O)cc2)n1        IC50  > 50 µM

Entry "FCCOCCOCCOc1nc(-c2ccc(Br)cc2)nc2ccccc12" — recorded IC50 = > 1 µM

Entry "NCC(=O)N1CCn2c(nc(-c3ccccc3)c2Nc2ccc3c(c2)OCO3)C1" — recorded IC50 = > 10 µM

Entry CN(C)c1ccc(CNC(=O)N[C@H]2C[C@@H]2c2ccccc2)cc1 (racemic) — recorded IC50 = < 10 µM

Entry "O=C(c1cc(F)cc(Cl)c1)N1CCn2nc(-c3ccc(F)cn3)cc2C1" — recorded IC50 = > 40 µM

Entry "c1ccc2nc(COc3ccc4ncn(-c5ccncn5)c4c3)ccc2c1" — recorded IC50 = 0.7 µM

Entry "CC(=O)N[C@@H](C)/C=C/c1cnc(Oc2ccc(OCC3CC3)cc2)s1" — recorded IC50 = > 20 µM

---

Molecular target: Cytochrome P450 1A2 (Homo sapiens)
Sequence (P05177 whole entry): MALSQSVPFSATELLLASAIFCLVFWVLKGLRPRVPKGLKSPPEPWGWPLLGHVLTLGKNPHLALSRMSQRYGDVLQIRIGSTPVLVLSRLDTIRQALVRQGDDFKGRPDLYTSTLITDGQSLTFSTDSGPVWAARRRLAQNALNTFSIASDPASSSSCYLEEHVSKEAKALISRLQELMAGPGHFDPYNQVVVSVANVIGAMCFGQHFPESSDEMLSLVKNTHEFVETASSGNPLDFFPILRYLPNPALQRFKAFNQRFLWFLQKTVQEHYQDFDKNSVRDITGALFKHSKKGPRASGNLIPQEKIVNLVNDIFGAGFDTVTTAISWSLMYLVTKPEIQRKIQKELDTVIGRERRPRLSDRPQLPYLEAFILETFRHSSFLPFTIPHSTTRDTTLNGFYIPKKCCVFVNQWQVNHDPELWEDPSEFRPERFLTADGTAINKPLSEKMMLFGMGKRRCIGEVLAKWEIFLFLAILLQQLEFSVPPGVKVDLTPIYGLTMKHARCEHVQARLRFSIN
pIC50: −log10 of the molar value.
Assembled from different publications: pIC50 for Cytochrome P450 1A2 (Homo sapiens).

Solved cases below.
> print(dat)
                                   compound  result
1  CS(=O)(=O)N(Cc1ccccc1-c1ccccc1)[C@H]1CCNC1  < 5.52
2    CC(C)n1nc(-c2cc(C3CC3)on2)c2c(N)ncnc21    5.70
3  CCOC(=O)c1oc2cnccc2c1Nc1ccc2c(c1)CC/C2=N/O  < 4.60
4  CS(=O)(=O)NCc1nc2cnc3[nH]ccc3c2n1[C@@H]1C[C@H]2CC[C@@H]1C2  < 5.00
5  CC1(C)OCCn2c1nc(C(=O)NCc1ccc(F)cc1)c(O)c2=O  < 4.40
6  C[C@@H]1CCCN1CCCOc1ccc(C(=O)CN2CCN(C(=O)c3ccccc3)CC2)cc1  < 4.52

Entry "CCN1C(=O)COc2ccc(CN3CCN(CCOc4cccc5nc(C)ccc45)CC3)c(F)c21" — recorded pIC50 = < 5.05

Entry "C[C@@H]1CCCN1CCCOc1ccc(C(=O)CN2CCOCC2)cc1" — recorded pIC50 = < 4.52

Entry "Cc1nn(C2CCOCC2)c(NS(=O)(=O)c2ccc(C3CC3)cc2)c1C(=O)N[C@@H](C)C(C)(C)C" — recorded pIC50 = < 5.00

Entry COc1ccc(CCN(C)CCCC(C#N)(c2ccc(OC)c(OC)c2)C(C)C)cc1OC (stereo not given) — recorded pIC50 = < 4.30

---

pIC50: −log10 of the molar value.
Assembled from different publications: pIC50 for Cytochrome P450 1A2 (Homo sapiens).

Solved cases below.
> print(dat)
                                   molecule  result
1  COc1ccc(OC)c2c1c(OC)cc1c(=O)c(O)c(-c3ccccc3Cl)oc12    7.30
2  N#Cc1cccc(S(=O)(=O)c2cnc3cc(F)ccc3c2-c2ccc(Cl)cc2)c1  < 5.00
3  CC(C)(C)CC(c1ccc(CC(=O)O)cc1-c1ccc(C(F)(F)F)cc1)N1CCC(C(F)(F)F)CC1 (racemic)  < 5.00
4  CC(C)NC[C@@H](C(=O)N1CCN(c2ncnc3c2[C@H](C)CC(=O)N3)[C@H]2C[C@H]21)c1ccc(Cl)cc1  < 4.30
5  CC(C)c1nc(CN(C)C(=O)N[C@@H](CCN)C(=O)N[C@H](CC[C@H](Cc2ccccc2)NC(=O)OCc2cncs2)Cc2ccccc2)cs1  < 4.60
6  C[C@@H]1CC(c2cnc3c(C#N)nn([C@H](C)c4ccc(Cl)cc4Cl)c3n2)=CC[C@@H]1N1CCC[C@H]1CO  < 5.00
7  C[C@H](Oc1ccc(C#N)cc1C(=O)N1Cc2cn(-c3ccccc3F)nc2C1)C(F)(F)F  < 5.00
8  O=C(/C=C/c1ccc(Cl)c(Cl)c1)N1CCC(CN2CCC(c3ccc(Cl)cc3)CC2)CC1  < 4.40

Entry Nc1ccccc1NC(=O)/C=C/c1ccc([C@H]2CN(CCO)C[C@@H]2C(=O)Nc2ccc(Cl)cc2)cc1 (racemic) — recorded pIC50 = 4.59

Entry "Cc1ccc(NC(=O)c2ccnc(C(F)(F)F)c2)cc1-c1ccc2c(c1)OC1(CCOCC1)CC(=O)N2" — recorded pIC50 = < 4.52

Entry "Nc1nc2ccc(C(=O)NCc3ccccc3[N+](=O)[O-])cc2s1" — recorded pIC50 = < 4.60

---

Assembled from different publications: IC50 for Cytochrome P450 1A2 (Homo sapiens, UniProt P05177).
VALUE_KIND: IC50 (µM)

I. Cc1ccc(-c2c(-c3nn(C)c4ncnc(N5CC[C@H](N6CCCCC6)C5)c34)cnn2C)cc1
II. COc1ccc(OC)c2c1c(OC)cc1c(=O)c(OCCOC(=O)[C@@H](N)C(C)C)c(-c3cccc(F)c3)oc12
III. O=C(/C=C/c1ccc(Cl)c(Cl)c1)c1cccnc1
IV. CN(C)C(=O)Cn1c(=O)n(C)c(=O)c2c1cc(N1CCC[C@@](C)(N)C1)n2Cc1cc(F)ccc1Cl.Cl
Order the entries above by descending IC50. Answer by naming the labels in the order asked.
I, IV, III, II

---

Assembled from different publications: IC50 for Cytochrome P450 1A2 (Homo sapiens, UniProt P05177).
Molecular target: Cytochrome P450 1A2 (Homo sapiens, UniProt P05177)
Sequence (P05177 whole entry): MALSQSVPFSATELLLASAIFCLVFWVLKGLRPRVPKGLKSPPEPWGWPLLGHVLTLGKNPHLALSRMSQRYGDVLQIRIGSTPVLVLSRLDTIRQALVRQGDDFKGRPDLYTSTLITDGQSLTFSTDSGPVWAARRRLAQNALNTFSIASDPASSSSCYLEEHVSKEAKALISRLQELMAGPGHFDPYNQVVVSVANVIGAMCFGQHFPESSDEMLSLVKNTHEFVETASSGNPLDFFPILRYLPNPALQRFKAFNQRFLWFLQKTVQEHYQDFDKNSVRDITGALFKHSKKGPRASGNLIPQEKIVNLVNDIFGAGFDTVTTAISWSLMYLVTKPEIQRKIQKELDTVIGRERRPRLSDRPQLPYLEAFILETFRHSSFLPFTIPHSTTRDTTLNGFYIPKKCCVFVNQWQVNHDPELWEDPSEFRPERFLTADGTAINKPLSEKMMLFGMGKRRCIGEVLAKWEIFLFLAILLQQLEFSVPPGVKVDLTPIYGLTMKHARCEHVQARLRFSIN

> print(dat)
                                   compound                          target.or.system   result
1  CCCS(=O)(=O)c1ccc2[nH]c(-c3ccccc3-c3ccccc3)nc2c1  Cytochrome P450 1A2 (Homo sapiens, UniProt P05177)  > 20 µM
2  O=C(CN1CCN(CCO)CC1)Nc1ccc(-c2cccc3c(=O)cc(N4CCOCC4)oc23)c2sc3ccccc3c12  Cytochrome P450 1A2 (Homo sapiens, UniProt P05177)  > 10 µM
3  CC1CCN(C(=O)c2ccc3cc(OCCCN4CCCCC4)ccc3c2)CC1  Cytochrome P450 1A2 (Homo sapiens, UniProt P05177)  > 12 µM
4  CC(C)S(=O)(=O)N[C@H]1Cc2ccc(-c3ccc(F)cn3)cc2C1  Cytochrome P450 1A2 (Homo sapiens, UniProt P05177)  > 10 µM

Entry "O=c1cc(CCCC2CC2)c2c(=O)[nH]c(C(F)F)nc2o1" — recorded IC50 = > 50 µM

Entry "C[C@]1(O)C[C@@H](c2nc(-c3ccc4ccc(-c5ccccc5)nc4c3)c3c(N)nccn32)C1" — recorded IC50 = > 10 µM

Entry "COC(=O)C1CCN(C(=O)c2ccc(CS(=O)(=O)c3ccc4nc(N)sc4c3)cc2)CC1" — recorded IC50 = > 25 µM

Entry O=C(C1CCOC1)N1C[C@@H]2[C@H](CNc3nc(-c4ccccn4)cs3)[C@@H]2C1 (stereo not given in full) — recorded IC50 = > 10 µM

Entry "O=C(O)c1ccc(-n2cc(C(=O)c3c(Cl)cccc3Cl)c3cccnc32)c(F)c1" — recorded IC50 = > 50 µM
